PROPERTY MEASURED: melting point (°C)

>>> endpoint_value("Cl.Clc1ccc(OC(c2ccc(Cl)c(Cl)c2)C2CNC2)cc1 (stereo not drawn)")
201
>>> endpoint_value("Cl.FC(F)(F)Oc1cccc(OC(c2ccc(Cl)c(Cl)c2)C2CNC2)c1 (stereo not drawn)")
208
>>> endpoint_value("Cc1cccc(OC(c2ccc(F)c(F)c2)C2CNC2)c1.Cl (stereo not drawn)")
189

a. CCCOC(c1ccc(F)c(F)c1)C1CNC1.Cl (stereo not drawn)
b. Cl.Fc1cccc(OC(c2ccc(Cl)c(Cl)c2)C2CNC2)c1 (stereo not drawn)
input: Exercise: compare a and b ; which one has the greater melting point? Please identify the chosen entry by its label.
output: b

a. COC(c1ccccc1)C1CNC1.Cl (stereo not drawn)
b. Cl.Fc1cc(C(Oc2cccc(OC(F)(F)F)c2)C2CNC2)ccc1Cl (stereo not drawn)
input: Exercise: compare a and b ; which one has the greater melting point? Please identify the chosen entry by its label.
output: a
